From: patent US20210380703A1

Molecular target: human Fc (human)
Test: ELISA; negative control
optical density: recorded values
Respond with the bare value in OD.

binder	units symbol	measured value
372_F07 (antibody, V domains shown) VH: EVQLLESGGGLVQPGGSLRLSCAASGFTFDDYSMNWVRQAPGKGLEWVAGINYNSGYKGYADSVKGRFTISRDNSKNTLYLQMNSLRAEDTAVYYCARSATWHDTHLDYWGQGTLVTVSS VL: DIQMTQSPSSLSASVGDRVTITCRASQSILTYLNWYQQKPGKAPKLVIYAATSRASGVPSRFSGSGSGTDFTLTISSLQPEDFATYYCQQSYELPLTFGGGTKVEIK	OD	0.296

Record summary for 376_H09 (antibody, V domains shown) VH: EVQLLESGGGLVQPGGSLRLSCAASGFTFSDYSMNWVRQAPGKGLEWVANINYNGGYTGYADSVKGRFTISRDNSKNTLYLQMNSLRAEDTAVYYCARSANWHDTALDYWGQGTLVTVSS VL: DIQMTQSPSSLSASVGDRVTITCRASQSIITYLNWYQQKPGKAPKLVIYYVSNLPSGVPSRFSGSGSGTDFTLTISSLQPEDFATYYCQQSYDSPLTFGGGTKVEIK : reported optical density = 0.281

Record summary for 369_F12 (antibody, V domains shown) VH: EVQLLESGGGLVQPGGSLRLSCAASGFTFSSYSMNWVRQAPGKGLEWVASINYNSGYKSYADSVKGRFTISRDNSKNTLYLQMNSLRAEDTAVYYCARSATWHDTHLDYWGQGTLVTVSS VL: DIQMTQSPSSLSASVGDRVTITCRASQSIISYLNWYQQKPGKAPKLLIYAVTSLASGVPSRFSGSGSGTDFTLTISSLQPEDFATYYCQQSYENPLTFGGGTKVEIK : reported optical density = 0.434

Record summary for 375_H12 (antibody, V domains shown) VH: EVQLLESGGGLVQPGGSLRLSCAASGFTFSSYGMNWVRQAPGKGLEWVAGINYNGGYKGYADSVKGRFTISRDNSKNTLYLQMNSLRAEDTAVYYCARSANWHDTALDYWGQGTLVTVSS VL: DIQMTQSPSSLSASVGDRVTITCRASQSILTYLNWYQQKPGKAPKLLIYYVTNRQSGVPSRFSGSGSGTDFTLTISSLQPEDFATYYCQQSYSIPLTFGGGTKVEIK : reported optical density = 0.188

Record summary for 374_G06 (antibody, V domains shown) VH: EVQLLESGGGLVQPGGSLRLSCAASGFTFSSYGMHWVRQAPGKGLEWVASINYNGGYTSYADSVKGRFTISRDNSKNTLYLQMNSLRAEDTAVYYCARSANWHDTALDYWGQGTLVTVSS VL: DIQMTQSPSSLSASVGDRVTITCRASQSILSYLNWYQQKPGKAPKLLIYAVTSRASGVPSRFSGSGSGTDFTLTISSLQPEDFATYYCQQSYDLPLTFGGGTKVEIK : reported optical density = 0.25

Record summary for 374_E11 (antibody, V domains shown) VH: EVQLLESGGGLVQPGGSLRLSCAASGFTFSSYGMNWVRQAPGKGLEWVSNINYNGGYTSYADSVKGRFTISRDNSKNTLYLQMNSLRAEDTAVYYCARSANWHDTALDYWGQGTLVTVSS VL: DIQMTQSPSSLSASVGDRVTITCRASQSIVTYLNWYQQKPGKAPKLVIYAATSRASGVPSRFSGSGSGTDFTLTISSLQPEDFATYYCQQSYDSPLTFGGGTKVEIK : reported optical density = 0.186

Record summary for 375_A05 (antibody, V domains shown) VH: EVQLLESGGGLVQPGGSLRLSCAASGFTFSSYGMNWVRQAPGKGLEWVANINYNGGYKGYADSVKGRFTISRDNSKNTLYLQMNSLRAEDTAVYYCARSANWHDTALDYWGQGTLVTVSS VL: DIQMTQSPSSLSASVGDRVTITCRASQSILSYLNWYQQKPGKAPKLLIYAATSRASGVPSRFSGSGSGTDFTLTISSLQPEDFATYYCQQSYDLPLTFGGGTKVEIK : reported optical density = 0.202

Record summary for 367_G07 (antibody, V domains shown) VH: EVQLLESGGGLVQPGGSLRLSCAASGFTFDSYSMNWVRQAPGKGLEWVANINYNGGYTGYADSVKGRFTISRDNSKNTLYLQMNSLRAEDTAVYYCARSATWHDTHLDYWGQGTLVTVSS VL: DIQMTQSPSSLSASVGDRVTITCRASQSILTYVNWYQQKPGKAPKLLIYAATSRASGVPSRFSGSGSGTDFTLTISSLQPEDFATYYCQQSYDNPLTFGGGTKVEIK : reported optical density = 0.295

Record summary for 373_B03 (antibody, V domains shown) VH: EVQLLESGGGLVQPGGSLRLSCAASGFTFSSYSMNWVRQAPGKGLEWVAGINYNSGYKSYADSVKGRFTISRDNSKNTLYLQMNSLRAEDTAVYYCARSATWHDTHLDYWGQGTLVTVSS VL: DIQMTQSPSSLSASVGDRVTITCRASQSILTYLNWYQQKPGKAPKLVIYAATSLASGVPSRFSGSGSGTDFTLTISSLQPEDFATYYCQQSYDNPLTFGGGTKVEIK : reported optical density = 0.18

Record summary for 365_F08 (antibody, V domains shown) VH: EVQLLESGGGLVQPGGSLRLSCAASGFTFDDYGMNWVRQAPGKGLEWVANINYNGGYTSYADSVKGRFTISRDNSKNTLYLQMNSLRAEDTAVYYCARSATWHDTHLDYWGQGTLVTVSS VL: DIQMTQSPSSLSASVGDRVTITCRASQSILSYVNWYQQKPGKAPKLLIYAATSRHSGVPSRFSGSGSGTDFTLTISSLQPEDFATYYCQQSYSLPLTFGGGTKVEIK : reported optical density = 0.437
